This collection of values is drawn from patent US8691753B2.

ASSAY_SYSTEM: MMP-12h (Homo sapiens (Human))
Sequence (P39900 106-470): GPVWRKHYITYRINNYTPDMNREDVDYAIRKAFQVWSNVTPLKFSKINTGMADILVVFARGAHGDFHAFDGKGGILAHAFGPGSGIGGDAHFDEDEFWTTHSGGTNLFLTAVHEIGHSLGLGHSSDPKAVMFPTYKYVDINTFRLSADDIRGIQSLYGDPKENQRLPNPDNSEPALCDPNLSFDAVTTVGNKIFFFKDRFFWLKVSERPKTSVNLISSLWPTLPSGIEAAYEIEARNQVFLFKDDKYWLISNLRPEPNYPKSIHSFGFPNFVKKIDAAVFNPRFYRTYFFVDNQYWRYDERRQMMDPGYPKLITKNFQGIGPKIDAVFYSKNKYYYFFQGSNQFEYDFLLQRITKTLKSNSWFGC
ASSAY_REMARKS: Inhibition constant (Ki) on MMP-12h
Format: biochemical
ASSAY_SETUP: read-out: Ki MMP-12h; human MMP-12

SMILES_NOTATION: NC(=O)[C@H](CCC(=O)O)NC(=O)[C@H](CCC(=O)O)NC(=O)CCc1noc(-c2ccccc2)n1
MEASUREMENT_UNIT: nM
RELATION: >
Ki: 1000
//
SMILES_NOTATION: NC(=O)[C@H](Cc1ccc(O)cc1)NC(=O)[C@H](CCC(=O)O)NC(=O)CCc1ccc(-c2ccccc2)cc1
MEASUREMENT_UNIT: nM
RELATION: =
Ki: 52
//
SMILES_NOTATION: NC(=O)CC[C@H](NC(=O)[C@H](CCC(N)=O)NC(=O)CCc1cc(-c2ccc(-c3ccccc3)cc2)no1)C(N)=O
MEASUREMENT_UNIT: nM
RELATION: =
Ki: 830
//
SMILES_NOTATION: NC(=O)[C@H](CCC(=O)O)NC(=O)[C@H](CCC(=O)O)NC(=O)CCc1ccc(-c2ncccn2)cc1
MEASUREMENT_UNIT: nM
RELATION: =
Ki: 969
//
SMILES_NOTATION: NC(=O)CC[C@H](NC(=O)[C@H](CCC(=O)O)NC(=O)CCc1ccc(-c2ccc(-c3ccccc3)cc2)cc1)C(N)=O
MEASUREMENT_UNIT: nM
RELATION: =
Ki: 5.2
//
SMILES_NOTATION: NC(=O)[C@H](CO)NC(=O)[C@H](CCC(=O)O)NC(=O)CCc1ccc(-c2cccs2)cc1
MEASUREMENT_UNIT: nM
RELATION: =
Ki: 16.4
//
SMILES_NOTATION: NC(=O)[C@H](CC(=O)O)NC(=O)[C@H](CC(=O)O)NC(=O)CCc1cc(-c2ccc(-c3ccccc3)cc2)no1
MEASUREMENT_UNIT: nM
RELATION: =
Ki: 54
//
SMILES_NOTATION: NC(=O)[C@H](CC(=O)O)NC(=O)[C@H](CCC(=O)O)NC(=O)CCc1ccc(-c2cc(-c3ccccc3)cs2)cc1
MEASUREMENT_UNIT: nM
RELATION: =
Ki: 2.56
//
SMILES_NOTATION: NC(=O)[C@H](CC(=O)O)NC(=O)[C@H](CCC(=O)O)NC(=O)CCc1ccc(-c2ccccc2)cc1
MEASUREMENT_UNIT: nM
RELATION: =
Ki: 37
//
SMILES_NOTATION: NC(=O)[C@H](CO)NC(=O)[C@H](CCC(=O)O)NC(=O)CCc1ccc(-c2ccc(-c3ccccc3)cc2)cc1
MEASUREMENT_UNIT: nM
RELATION: =
Ki: 3.5
//
SMILES_NOTATION: NC(=O)[C@@H](CCC(=O)O)NC(=O)[C@H](CCC(=O)O)NC(=O)CCc1cc(-c2ccc(-c3cccc(Cl)c3)cc2)no1
MEASUREMENT_UNIT: nM
RELATION: =
Ki: 8.9
//
SMILES_NOTATION: CC(C)C[C@H](NC(=O)CCc1ccc(-c2ccc(-c3ccccc3)cc2)cc1)C(=O)N[C@@H](CCC(=O)O)C(N)=O
MEASUREMENT_UNIT: nM
RELATION: >
Ki: 1000
//
SMILES_NOTATION: NC(=O)[C@H](CC(=O)O)NC(=O)[C@H](CCC(=O)O)NC(=O)CCc1ccc(-c2cccs2)cc1
MEASUREMENT_UNIT: nM
RELATION: =
Ki: 14.2
//
SMILES_NOTATION: NC(=O)[C@H](Cc1c[nH]cn1)NC(=O)[C@H](CCC(=O)O)NC(=O)CCc1ccc(-c2ccc(-c3ccccc3)cc2)cc1
MEASUREMENT_UNIT: nM
RELATION: =
Ki: 10.2
